Tested Target: T1, human CD45 (human, UniProt P08575 26-1306)
T1 sequence: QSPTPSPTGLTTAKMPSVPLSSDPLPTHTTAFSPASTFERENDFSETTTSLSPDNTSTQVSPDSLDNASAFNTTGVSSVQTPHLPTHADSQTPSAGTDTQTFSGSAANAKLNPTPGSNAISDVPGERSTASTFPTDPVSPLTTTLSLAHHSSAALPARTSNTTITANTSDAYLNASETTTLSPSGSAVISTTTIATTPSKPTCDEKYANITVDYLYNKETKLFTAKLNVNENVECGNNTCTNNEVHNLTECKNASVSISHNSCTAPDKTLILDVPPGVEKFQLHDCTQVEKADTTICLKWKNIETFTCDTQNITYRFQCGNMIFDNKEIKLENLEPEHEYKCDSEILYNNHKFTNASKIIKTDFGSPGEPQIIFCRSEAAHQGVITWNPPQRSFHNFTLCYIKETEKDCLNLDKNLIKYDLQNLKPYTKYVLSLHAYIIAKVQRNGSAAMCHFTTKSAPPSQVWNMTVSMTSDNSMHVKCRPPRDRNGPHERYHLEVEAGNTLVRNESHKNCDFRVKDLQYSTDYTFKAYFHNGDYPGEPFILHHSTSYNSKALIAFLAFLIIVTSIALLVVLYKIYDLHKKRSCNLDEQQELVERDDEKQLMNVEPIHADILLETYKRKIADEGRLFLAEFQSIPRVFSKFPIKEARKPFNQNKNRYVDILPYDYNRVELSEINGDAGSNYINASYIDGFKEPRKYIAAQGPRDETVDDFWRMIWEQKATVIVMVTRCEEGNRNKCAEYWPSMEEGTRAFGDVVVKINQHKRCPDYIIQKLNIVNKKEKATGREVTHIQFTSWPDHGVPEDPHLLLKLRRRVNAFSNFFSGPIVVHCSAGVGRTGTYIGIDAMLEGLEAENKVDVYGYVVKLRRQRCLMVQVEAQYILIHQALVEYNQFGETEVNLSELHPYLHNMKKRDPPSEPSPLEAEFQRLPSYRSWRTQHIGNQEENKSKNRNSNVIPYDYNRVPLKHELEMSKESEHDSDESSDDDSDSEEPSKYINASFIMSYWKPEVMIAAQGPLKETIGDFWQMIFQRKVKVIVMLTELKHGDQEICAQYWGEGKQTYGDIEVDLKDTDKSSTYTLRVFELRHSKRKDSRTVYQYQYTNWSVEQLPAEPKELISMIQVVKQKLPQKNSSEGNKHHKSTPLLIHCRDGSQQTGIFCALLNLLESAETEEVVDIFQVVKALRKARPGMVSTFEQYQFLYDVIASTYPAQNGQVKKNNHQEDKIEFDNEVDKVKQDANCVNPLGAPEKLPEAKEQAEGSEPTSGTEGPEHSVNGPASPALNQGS
Assay Info: cell-based or functional assay
Measured Attribute: Average EC50, viability assay, OCIM1 (CD45+), 5 days (pM)
Give bare numbers, in pM.

Reference set (2 entries):
* YTH24.5-B2 (antibody, V domains shown, PBD drug-linker B2 conjugated; sites and DAR not stated) VH: QVNLLQSGAALVKPGASVKLSCKASSYTFTDYYIHWVKQSHGKTLEWIGYINPKSGFTNYNEKFRRKATLTVDKSTNTAYMDISRLTSEDSATYYCTRRTGVIPMDAWGQGASVTVSS VL: DVVMTQTPVSLSVSLGGQVSISCRSSQSFVSSDGNTYLNWYLQKPGQSPQLLIYKVSNRLSGVPDRFSGSGSGTDFTLKISRVEHDDLGVYYCGQASKIPLTFGSGTKLEIKR | 0.025
* YTH54.12-rat IgG2b-PBD (drug-linker B1) (antibody, V domains shown, PBD dimer drug-linker B1; light chains unconjugated or attached to a single molecule of B1; sites not given; PBD dimer drug-linker B1 conjugated after TCEP reduction; heavy chains attached to up to five molecules of B1; sites not given; DAR 1.90 (preparation) / 2.00) VH: EVQLVESGGGLVQPGGSMKLSCAASGFTFSDYYMAWVRQAPKKGLEWVASMSFAGSSTYYGDSVKGRFTISRDNAKTTLYLQMNSLRSEDTATYYCARMYTTDYYLYWYFDFWGPGTMVTVSS VL: DVQMTQSPSYLAASPGESVSISCKASKSISNYLAWYQQKPGEANKILIYSGSTLQSGTPSRFSGSGSGTDFSLTIRNLEPEDFAVYYCQQYDEKPLTFGSGTKLEIKR | 0.039

Note to self: Average EC50, viability assay, OCIM1 (CD45+), 5 days recorded for YTH24.5-rat IgG2b-PBD (drug-linker B1) (antibody, V domains shown, PBD dimer drug-linker B1; light chains unconjugated or attached to a single molecule of B1; sites not given; PBD dimer drug-linker B1 conjugated after TCEP reduction; heavy chains attached to up to five molecules of B1; sites not given; DAR 1.94 (preparation) / 2.00) VH: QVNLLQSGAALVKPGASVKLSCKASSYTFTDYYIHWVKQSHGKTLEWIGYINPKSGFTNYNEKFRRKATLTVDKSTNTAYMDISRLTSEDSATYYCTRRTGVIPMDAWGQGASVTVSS VL: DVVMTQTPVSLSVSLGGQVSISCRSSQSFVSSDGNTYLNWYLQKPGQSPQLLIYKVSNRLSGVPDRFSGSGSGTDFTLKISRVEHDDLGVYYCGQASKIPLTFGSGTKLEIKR was 0.03
